Task for the reader: assign each of the following compounds its reported IC50.
system: TNF-α production in PBMC stimulated with LPS; assay: Inhibition of TNF-α production in PBMCs stimulated with LPS (ELISA); type: cell-based; conditions: Homo sapiens, average of 2 independent experiments (donors), LPS 1 ng/mL, 24 h, read-out: IC50/μM (av.) PMBC-LPS/TNF-α
Give just the numeric value; µM need not be written.

Give the measured IC50 of FC(F)(F)Oc1ccc(Cn2nnc3ccc4sccc4c32)cc1 [Compound 20] .
8.9

// next record FC(F)(F)c1ccc(Cn2nnc3c2-c2ccsc2CC3)cc1 [Compound 26]
9.4

// next record COc1ccc2ccc3nnn(Cc4ccc(F)cc4)c3c2c1 [Compound 4]
19.1

// next record C=CCCCn1nnc2ccc3ccc(OC)cc3c21 [Compound 3]
12

// next record COc1cccc(Cn2nnc3ccc4ccc(OC)cc4c32)c1 [Compound 6]
1.9

// next record Cc1cc2c(ccc3nnn(Cc4cccs4)c32)s1 [Compound 11]
38.7

// next record COc1ccc2ccc3nnn(C(C)C)c3c2c1 [Compound 1]
8.1

###

target: UniProt:P81908; test: biochemical; format: biochemical; conditions: read-out: BChE % Inhibition
Sequence (P81908 whole entry): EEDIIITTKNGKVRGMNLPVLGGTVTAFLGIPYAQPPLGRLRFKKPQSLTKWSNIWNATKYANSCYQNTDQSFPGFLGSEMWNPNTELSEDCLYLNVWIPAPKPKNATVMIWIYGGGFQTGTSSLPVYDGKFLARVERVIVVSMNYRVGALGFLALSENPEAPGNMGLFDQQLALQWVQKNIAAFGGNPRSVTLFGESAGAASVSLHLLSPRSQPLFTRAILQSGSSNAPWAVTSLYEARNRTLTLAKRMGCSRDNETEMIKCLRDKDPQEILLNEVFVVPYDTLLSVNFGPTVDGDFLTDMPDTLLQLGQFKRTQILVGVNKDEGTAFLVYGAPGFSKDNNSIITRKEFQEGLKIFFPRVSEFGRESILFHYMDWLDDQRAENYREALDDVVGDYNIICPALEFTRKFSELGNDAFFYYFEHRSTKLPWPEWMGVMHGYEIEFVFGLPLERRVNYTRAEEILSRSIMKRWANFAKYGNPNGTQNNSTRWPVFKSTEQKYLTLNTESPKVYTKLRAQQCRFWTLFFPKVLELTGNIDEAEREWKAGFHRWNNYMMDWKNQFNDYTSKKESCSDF
Task for the reader: assign each of the following compounds its reported inhibition at 350 µM.
Please report the result as a number followed by the unit.

Give the measured inhibition at 350 µM of Cc1cc2c(ccc3nnn(Cc4ccc(F)cc4)c32)s1 .
76.1%

// next record C=CCn1nnc2ccc3sc(C)cc3c21
62.6%

// next record COc1ccc(Cn2nnc3ccc4sc(C)cc4c32)cc1
65.2%

// next record Cc1cc2c(ccc3nnn(Cc4ccco4)c32)s1
46.1%

###

target: AChE (Electrophorus electricus); experiment: biochemical; assay type: biochemical
Sequence (O42275 24-633): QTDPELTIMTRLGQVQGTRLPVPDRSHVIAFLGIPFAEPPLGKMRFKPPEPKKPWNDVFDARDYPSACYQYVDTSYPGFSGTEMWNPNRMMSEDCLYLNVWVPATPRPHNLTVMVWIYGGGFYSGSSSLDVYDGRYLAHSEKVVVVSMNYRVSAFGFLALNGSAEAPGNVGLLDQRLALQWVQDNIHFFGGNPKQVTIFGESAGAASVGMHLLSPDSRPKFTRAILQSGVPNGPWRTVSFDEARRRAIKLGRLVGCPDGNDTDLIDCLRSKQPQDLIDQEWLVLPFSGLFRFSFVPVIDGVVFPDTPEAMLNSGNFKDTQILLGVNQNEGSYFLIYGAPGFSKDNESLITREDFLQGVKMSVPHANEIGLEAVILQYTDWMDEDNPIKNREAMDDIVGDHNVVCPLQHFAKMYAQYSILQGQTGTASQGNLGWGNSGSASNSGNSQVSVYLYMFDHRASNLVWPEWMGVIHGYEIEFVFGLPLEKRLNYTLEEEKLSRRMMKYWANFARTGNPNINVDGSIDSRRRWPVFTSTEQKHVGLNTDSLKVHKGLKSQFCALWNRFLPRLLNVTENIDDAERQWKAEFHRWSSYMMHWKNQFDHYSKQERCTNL
parameter-measured: IC50

Give the measured IC50 of Cc1cc2c(ccc3nnn(Cc4ccc(F)cc4)c32)s1 [Compound 9] .
83 µM

// next record C=CCCn1nnc2ccc3ccc(OC)cc3c21 [Compound 2]
91.8 µM

// next record COc1ccc2ccc3nnn(Cc4cccs4)c3c2c1 [Compound 7]
110 µM

###

Task for the reader: assign each of the following compounds its reported IC50.
test system: TNF-α production in PBMC stimulated with LPS; test: Inhibition of TNF-α production in PBMCs stimulated with LPS (ELISA); type: cell-based; settings: Homo sapiens, average of 2 independent experiments (donors), LPS 1 ng/mL, 24 h, read-out: IC50/μM (av.) PMBC-LPS/TNF-α

Give the measured IC50 of CC(C)c1nc2ccc3sccc3c2s1 .
> 100 µM

// next record CCOC(=O)CCn1nnc2ccc3sccc3c21
> 100 µM

// next record c1cc2c(s1)CCc1nnn(CCN3CCOCC3)c1-2
> 100 µM
